# reported GI50; entries follow
system: SW-620; experiment: NCI tumour cell line growth inhibition, 48 h
Calls of active or inactive are those of the source. No stated cut-off is given here; in the data, active = GI50 up to about 1.1 µM and inactive = higher.

{"columns": ["compound", "GI50"],
 "data": [
  ["CC(=O)Oc1c(OC(C)C)c(C)c(O[Si](C(C)C)(C(C)C)C(C)C)c2[nH]c3ccccc3c12", "> 83.4 µM (inactive)"],
  ["COc1cc(C2=N/C(=C/c3cccs3)C(=O)O2)cc(OC)c1OC", "> 100 µM (inactive)"],
  ["Cc1cn(C2CC(N=[N+]=[N-])C(CO)O2)c(=O)n(CCCCBr)c1=O (stereo not given)", "> 100 µM (inactive)"],
  ["CCOC(=O)Cc1ccc(Nc2nc3ccccc3nc2C(=O)OCC)cc1", "> 100 µM (inactive)"],
  ["Nc1nc(N)nc(-c2ccccc2NS(=O)(=O)c2ccc([N+](=O)[O-])cc2)n1", "> 100 µM (inactive)"],
  ["O=c1sc2c(s1)SSSSS2", "> 50 µM (inactive)"],
  ["CC(C)[Si](CC1=CCCCC12C(=O)N(COCC[Si](C)(C)C)c1ccccc12)(C(C)C)C(C)C (stereo not given)", "> 100 µM (inactive)"],
  ["COc1cc(/C=C/C(=O)OC[C@H](Br)[C@H](OC(C)=O)c2ccc3c(c2)OCO3)cc(OC)c1OC", "> 100 µM (inactive)"],
  ["Cc1ccc(S(=O)(=O)n2cc(/C=C/C#N)c(/C=C/C#N)c2)cc1", "40 µM (inactive)"],
  ["NC(=O)c1cccc(C2OC(COP(=O)(O)O)C(O)C2O)c1 (stereo not given)", "42.9 µM (inactive)"]
]}

###

system: NCI-H226; experiment: NCI tumour cell line growth inhibition, 48 h
The source made the active and inactive calls. Rule as the data show it: active = GI50 up to about 1.1 µM and inactive = higher. Where a SMILES comes first, the peptide text is derived from it. [ ]: non-standard residue; d: D form. The star is where a group is joined. ξ: configuration not given here. ξF = NC(Cc1ccccc1)C(=O)O; Cbz = O=C(OCc1ccccc1)*; Aib = CC(C)(N)C(=O)O; NHNH2 = NN*
Classes used: True = active, False = inactive

{"columns": ["compound", "classification"],
 "data": [
  ["NC1(CCNC(=O)c2ccccc2)CCN(C(=O)c2ccccc2)CC1", "False"],
  ["O=S1(=O)OCCOS(=O)(=O)C1F", "False"],
  ["CC(C)(C)c1ccc(O)c(Br)c1", "False"],
  ["CC(C)=CCN1c2ccccc2NC(=O)CC1C (stereo not drawn)", "False"],
  ["CC1(C)C2CC3C(C)(C2)C31c1cc(Cl)ccc1N (stereo not drawn)", "False"],
  ["C#CCOCn1cnc2ncnc(N)c21", "False"],
  ["COc1ccc(C(=O)c2cc(OC)c(OC)c(OC)c2)cc1", "True"],
  ["CC(=O)OCCOCn1c2c(c(=S)[nH]c1=O)CCC2", "False"],
  ["COc1cc(C2=N/C(=C/c3cccs3)C(=O)O2)cc(OC)c1OC", "False"],
  ["O=C(CNc1ccc(Cl)cc1Cl)Nn1c(-c2ccccc2)nc2ccccc2c1=O", "False"],
  ["CC(C)[Si](OC1=C(C(=O)N(C)c2ccccc2Cl)CCC1)(C(C)C)C(C)C", "False"],
  ["CC(=O)Oc1c(OC(C)C)c(C)c(O[Si](C(C)C)(C(C)C)C(C)C)c2[nH]c3ccccc3c12", "False"],
  ["CC1=CC(C)(C)N=C2SC(c3ccc(Cl)cc3)=NN12", "False"],
  ["COC(=O)CCC1(C)C2CCC1(C)/C(=N/O)C2 (stereo not drawn)", "False"],
  ["C=C([C@@]1(O)C[C@H]2[C@H](CCC2(OC)OC)[C@@H]2c3ccccc3O[C@@H]21)[Si](C)(C)C", "False"],
  ["COc1c(N2CCCCC2)c2c(=O)c3ccccc3oc2c2cc(C)oc12", "False"],
  ["O=C(C/C(CCC(=O)N(Cc1ccccc1)Cc1ccccc1)=N/Nc1ccc([N+](=O)[O-])cc1[N+](=O)[O-])c1ccccc1", "False"],
  ["O=S(=O)(c1ccc2ccccc2c1)N1CCN(S(=O)(=O)c2ccc3ccccc3c2)CC1", "False"],
  ["CC1=C2CCCC2=C/C(=N/Nc2ccc([N+](=O)[O-])cc2[N+](=O)[O-])CC1", "False"],
  ["CC(C)(NC(=O)OCc1ccccc1)C(=O)NC(Cc1ccccc1)C(=O)NN (stereo not drawn) (Cbz-[Aib]-[ξF]-NHNH2)", "False"],
  ["COc1cccc(NC(=O)C(=O)C(C(=O)c2ccccc2F)C2OC(=O)c3ccccc32)c1 (stereo not drawn)", "False"],
  ["CCOC(=O)c1c(N2CCCC2)ncn(C)c1=S", "False"],
  ["CC(=O)O[C@H]1CCN2C(=O)C=CC(OCc3ccccc3)C12 (stereo partly drawn)", "False"],
  ["CCOC(=O)c1nc2ccc(C(F)(F)F)cc2nc1Oc1cc(OC)c(OC)c(OC)c1", "False"],
  ["COC(=O)c1ccc2cc(O)ccc2c1", "False"],
  ["O=C1/C(=C/c2cccc(Cl)c2)CCCc2ccccc21", "False"],
  ["Oc1ccc(Cc2cc(Cl)cc(Cl)c2O)cc1Cl", "False"],
  ["COc1cc(CN(C)N2C(=O)c3cccc4cc([N+](=O)[O-])cc(c34)C2=O)cc(OC)c1OC", "False"],
  ["OCC1=CC(NC2CC(CO)C(O)C(O)C2O)C(O)C(O)C1O (stereo not drawn)", "False"],
  ["COc1ccc(/C(=N/O)c2ccccc2C2=Nc3ccccc3C(NCc3ccccc3)O2)cc1C (stereo not drawn)", "False"],
  ["CCCCCCCCCCCCCCC(O)C1CCC(C(O)CCC(O)CCCCCC(O)CC2=CC(C)OC2=O)O1 (stereo not drawn)", "True"],
  ["O=c1sc2c(s1)SSSSS2", "False"],
  ["CCCCCCCCCCNC1CC(OC2CC(O)(C(O)CO)Cc3c(O)c4c(c(O)c32)C(=O)c2c(OC)cccc2C4=O)OC(C)C1O (stereo not drawn)", "False"],
  ["CCOC(=O)Cc1ccc(Nc2nc3ccccc3nc2C(=O)OCC)cc1", "False"],
  ["CC(C)OP(=O)(OC(C)C)/C(=N/Nc1ccc([N+](=O)[O-])cc1)NNC(=O)c1ccccc1", "False"],
  ["COC(=O)C1C(OCc2ccccc2)C2CCC1(OC)C=C2C (stereo not drawn)", "False"],
  ["N#C/C1=C(\\N)CCSSSC1", "False"],
  ["O=C(C#Cc1ccccc1)N1CCCCC1", "False"],
  ["CCN(C(=O)N[C@@H](Cc1ccccc1)C(=O)N[C@@H](CC(C)C)C(=O)OC)c1ccccc1", "False"],
  ["CN(C(=O)/C=C/c1ccccc1)C1C2CN3CCC(O2)C13 (stereo not drawn)", "False"],
  ["N#CC(/C(=N/NC(=O)C(=O)NN)C(=O)Nc1nc([N+](=O)[O-])cs1)c1ccc(Cl)cc1 (stereo not drawn)", "False"],
  ["CN(C)/N=N/c1ccc2[nH]c(=O)[nH]c2c1", "False"],
  ["CNC(=S)/C(C#N)=C(\\N)N1CCCC1", "False"]
]}

###

tested on: SF-295; test: NCI tumour cell line growth inhibition, 48 h
The source made the active and inactive calls. Cut-off read from the data, not from the text of the source: active = GI50 up to about 1.1 µM and inactive = higher.
readout type: GI50

{"columns": ["compound", "readout value"],
 "data": [
  ["Cc1cc(Cc2cc(C)c(N)cc2N)c(N)cc1N", "> 100 µM (inactive)"],
  ["C/C=N\\n1c(C)c(C#N)c(C#N)c1N", "> 100 µM (inactive)"],
  ["O=c1oc2c([N+](=O)[O-])cc([N+](=O)[O-])cc2c2ccccc12", "> 100 µM (inactive)"],
  ["Cn1c(=O)nc2n(-c3ccc(O)cc3)c3ccccc3nc-2c1=O", "> 100 µM (inactive)"],
  ["COc1ccccc1NC(=O)CC(=O)NN", "> 100 µM (inactive)"],
  ["C#CCOCn1cnc2ncnc(N)c21", "> 100 µM (inactive)"],
  ["CC(=O)Nc1ccccc1[S+]([O-])c1ccccc1 (stereo unspecified)", "> 100 µM (inactive)"],
  ["C=CCN1C(=O)C[C@H](Cc2ccccc2)NC(=O)C[C@H](Cc2ccccc2)N(CC=C)C(=O)C[C@H](Cc2ccccc2)NC(=O)C[C@@H]1Cc1ccccc1", "23.6 µM (inactive)"],
  ["Nc1nc(N)c2ncn(-c3ccc(Br)cc3)c2n1", "34.4 µM (inactive)"],
  ["N=C(N)/N=C(\\N)Nc1ccc(C(=O)O)cc1", "> 100 µM (inactive)"],
  ["O=C(/C=C/c1ccc(-c2ccccc2)cc1)NCc1ccc(C(=O)NCc2ccccc2)cc1", "> 100 µM (inactive)"]
]}
